# Tested on: ACHN
# ASSAY PROCEDURE: NCI tumour cell line growth inhibition, 48 h
The source made the active and inactive calls. Cut-off read from the data, not from the text of the source: active = GI50 up to about 1.1 µM and inactive = higher.
Reply using exactly one outcome from Y for active, N for inactive

CCOC(=O)C(CCC(N)=O)(CCC(=O)OC)C(=O)OCC    N
CC(=O)OCC1OC(n2c3c(cc(C#N)c2=S)CCCCC3)C(OC(C)=O)C(OC(C)=O)C1OC(C)=O (centres undefined)    N
N#CCCN(CCC#N)c1ccc(/C=C2\SC(=S)NC2=O)cc1    N
COc1ccc(/C=C/C(=O)c2cccc(C(=O)/C=C/c3ccc(OC)c(OC)c3)n2)cc1OC    N
Cn1c(=O)c2nc(NCCO)cnc2n(C)c1=O    N
CS(=O)(=O)OCC1CCCCCCCCCCC12SCCCS2 (centres undefined)    N
Cc1cccc2c(N)c3cccc(C(=O)NCCN4CCOCC4)c3nc12    Y
Nc1nc(SCCC/C=C/I)nc2c1ncn2C1OC(COP(=O)(O)O)C(O)C1O (centres undefined)    N
c1csc(-c2cc(-c3ccsc3)c(-c3cccs3)s2)c1    N
COc1ccc(-c2c(N)[n+]([O-])c3cc(C)c(C)cc3[n+]2[O-])cc1OC    N

In: What outcome does the record of this test show for `CCc1cccc(C(C)C)c1NC(=O)C(=O)Nn1c(S)nc2ccccc2c1=O` ?
Out: N

In: Can you look up the reported call for `COc1cccc(C(=O)N2CCc3ccccc32)c1OC` for me?
Out: N

In: Could you kindly confirm the outcome this assay logged for C#C[C@]1(O)CCC2C3CCc4cc(Oc5nc(F)nc(-n6c(C)nc7cc8ccccc8cc76)n5)ccc4C3CCC21C (some centres undefined) ?
Out: N

In: How was `Cn1c(=O)c2c(-c3ccccc3)onc2n(C)c1=O` classified in this test?
Out: N

Hello, the source for this data is ChEMBL document CHEMBL1201862, in case you need it.
